System: Escherichia coli TOP10;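 further: peptides expressed intracellularly from a pBAD plasmid library in pooled LB shake-flask culture, induced with 0.3% L-arabinose, DNA abundance read by NGS, three biological replicates, DESeq2 with apeglm shrinkage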
Run Description: shrunken log2 fold change of peptide-encoding DNA abundance (4.5 h post-induction vs induction); higher = less antimicrobial activity (less host growth inhibition)
Details: time post-induction: 4.5 h; library: site-saturation at positions 5, 18, 19, 20
The reader will find reported shrunken log2 fold change values listed item by item below.

{"Sequence Data": "RRIRMRPPRLPRPRPRPTGHPRP", "shrunken log2 fold change": 0.63}
{"Sequence Data": "RRIRARPPRLPRPRPRPIKHPRP", "shrunken log2 fold change": -0.0409}
{"Sequence Data": "RRIRDRPPRLPRPRPRPWVWPRP", "shrunken log2 fold change": 0.702}
{"Sequence Data": "RRIRERPPRLPRPRPRPFLDPRP", "shrunken log2 fold change": -0.318}
{"Sequence Data": "RRIRHRPPRLPRPRPRPNTRPRP", "shrunken log2 fold change": -0.28}
{"Sequence Data": "RRIRYRPPRLPRPRPRPEYCPRP", "shrunken log2 fold change": -0.414}
{"Sequence Data": "RRIRERPPRLPRPRPRPAHVPRP", "shrunken log2 fold change": -0.0768}
{"Sequence Data": "RRIRKRPPRLPRPRPRPQTFPRP", "shrunken log2 fold change": 0.117}
{"Sequence Data": "RRIRKRPPRLPRPRPRPTSMPRP", "shrunken log2 fold change": 0.508}
{"Sequence Data": "RRIRHRPPRLPRPRPRPQDPPRP", "shrunken log2 fold change": 0.0646}
{"Sequence Data": "RRIRFRPPRLPRPRPRPDHPPRP", "shrunken log2 fold change": -0.593}
{"Sequence Data": "RRIRSRPPRLPRPRPRPMEAPRP", "shrunken log2 fold change": -0.00776}
{"Sequence Data": "RRIRDRPPRLPRPRPRPPHEPRP", "shrunken log2 fold change": 0.00485}
{"Sequence Data": "RRIRFRPPRLPRPRPRPKSHPRP", "shrunken log2 fold change": -0.506}
{"Sequence Data": "RRIRLRPPRLPRPRPRPAANPRP", "shrunken log2 fold change": 0.273}
